Reference source: patent EP4741383A1

assay-info: Rat PK study (IV 1 mg/kg and PO 5 mg/kg)
Format: in vivo, male SD rats
stated-conditions: male, SD, rat, plasma, 10 mg/kg; PO, dose 10 mpk; read-out: PO AUC 0->t
Method: According to standard methods for rat PK studies in this field, the rat PK tests for the representative compounds of this disclosure and the positive control compound (11a-1) were conducted as follows. Specifically, six male SD rats (6-8 weeks old, weighing 200 ± 20 g, purchased from Vital River Laboratories) were randomly divided into two groups of three rats each, for intravenous (IV) and oral gavage (PO) administration, respectively. […]
metric: AUC(0-t) (ng·h/mL)
# output: bare number, implied unit ng·h/mL

Q: Can you share its AUC(0-t)? I mean this molecule: Cn1c(-c2cccc(NC(=O)C(=O)Nc3ccc(-c4ccsc4)cc3)c2)c(I)c2cc(C(=O)O)c(O)cc21 [Example 11a-1, reference compound]
Ans: 30

---

Test system: NCI-H358
assay-info: CellTiter-Glo cell proliferation inhibition, NCI-H358
Type: cell-based
stated-conditions: Homo sapiens; NCI-H358 (lung cancer cell line), 2D, 72 hours; read-out: Example IC50 (µM) NCI-H358(2D)
metric: IC50 (µM)
# output: bare number, implied unit µM

Examples from the recorded data:
- molecule: "CC1(n2c(-c3ccc(NC(=O)C(=O)Nc4ccc(N5CCC6(CCOC6)CC5)cc4)cc3)cc3cc(F)c(-c4nnn[nH]4)cc32)CCC1"
  units-of-measure: "µM"
  IC50: 0.072
- molecule: "O=C(Nc1ccc(-c2cc3cc(F)c(-c4nnn[nH]4)cc3n2C2CCC2)cc1)C(=O)Nc1ccc(N2CCC3(CCC(O)C3)CC2)cc1 (stereo not drawn)"
  units-of-measure: "µM"
  IC50: 0.063

Turning to the following molecule.
Q: Return IC50 measured with NCI-H358 given this molecule: `O=C(Nc1ccc(-c2csc(CO)c2)cc1)C(=O)Nc1ccc(-c2cc3cc(F)c(-c4nnn[nH]4)cc3n2C2CCC2)cc1`
Ans: 0.074

---

Let's go through some recorded IC50 values for STEP (Homo sapiens) together.
# output: bare number, implied unit µM

Examples from the recorded data:
- compound: "CC1(n2c(-c3ccc(NC(=O)C(=O)Nc4ccc(N5CCC6(CCOC6)CC5)cc4)cc3)cc3cc(F)c(-c4nnn[nH]4)cc32)CCC1"
  IC50, µM: 8.23
- compound: "O=C(Nc1ccc(-c2oc3cc(F)c(-c4nnn[nH]4)cc3c2C2CCC2)cc1)C(=O)Nc1ccc(N2CCC3(CCOC3)CC2)cc1"
  IC50, µM: 6.62
- compound: "Cn1cc(-c2ccc(NC(=O)C(=O)Nc3ccc(-c4cc5cc(F)c(-c6noc(=O)[nH]6)cc5n4C4CCC4)cc3)cc2)cn1"
  IC50, µM: 15.5

Turning to the following compound.
Q: Can you share its IC50? I mean this compound: Cn1c(-c2cccc(NC(=O)C(=O)Nc3ccc(-c4ccsc4)cc3)c2)c(I)c2cc(C(=O)O)c(O)cc21 [Example 11a-1, reference compound]
Ans: 4

---

Test system: A20
assay-info: CellTiter-Glo cell proliferation inhibition, A20
Format: cell-based
stated-conditions: A20 (mouse B-cell lymphoma cell line), 72 hours; read-out: Example IC50 (µM) A20
Reported IC50 by item:
# output: bare number, implied unit µM

- compound: "O=C(Nc1ccc(-c2csc(CO)c2)cc1)C(=O)Nc1ccc(-c2cc3cc(F)c(-c4nnn[nH]4)cc3n2C2CCC2)cc1"
  units-of-measure: "µM"
  assay-result: 0.077
- compound: "O=C(Nc1ccc(-c2cc3cc(F)c(-c4nnn[nH]4)cc3n2C2CCC2)cc1)C(=O)Nc1ccc(N2CCC3(CCC(O)C3)CC2)cc1 (stereo not drawn)"
  units-of-measure: "µM"
  assay-result: 0.128

Turning to the following compound.
Q: Can you share its IC50? I mean this compound: `CC1(n2c(-c3ccc(NC(=O)C(=O)Nc4ccc(N5CCC6(CCOC6)CC5)cc4)cc3)cc3cc(F)c(-c4nnn[nH]4)cc32)CCC1`
Ans: 0.075
